Target: 17β-hydroxysteroid dehydrogenase type 3 (17β-HSD type 3) (Homo sapiens)
Construct: expressed in transfected cells; host or cells: MCF-7
Sequence (P37058 1-310): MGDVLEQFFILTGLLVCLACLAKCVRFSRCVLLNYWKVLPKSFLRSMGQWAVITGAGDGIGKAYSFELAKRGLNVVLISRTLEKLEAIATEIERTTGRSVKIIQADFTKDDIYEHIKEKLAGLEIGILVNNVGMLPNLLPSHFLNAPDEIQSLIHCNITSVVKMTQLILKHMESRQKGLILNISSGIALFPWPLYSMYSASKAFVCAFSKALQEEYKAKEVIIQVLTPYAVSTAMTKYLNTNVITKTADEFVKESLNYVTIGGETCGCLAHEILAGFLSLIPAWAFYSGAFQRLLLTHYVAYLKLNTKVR
Test: Inhibition of 17β-HSD type 3 in MCF-7 cells stably expressing the isoenzyme (tritium labeled androstenedione conversion, HPLC)
Format: cell-based
Settings: MCF7; 1 μM test compound; MCF-7 cells expressing 17β-HSD type 3; 2 nM tritium labeled androstenedione; read-out: % Inhibition HSD3 1 μM
Value Kind: inhibition at 1 µM (%)

// below: answered compounds
- Compound: "COc1cc(-c2nc3sc4c(Oc5ccccc5)c(C=O)ccc4c3c(=O)n2Cc2ccccc2)cc(OC)c1OC [No. 5]"
  inhibition at 1 µM, %: 9.4
- Compound: "COc1ccc(-c2nc3sc4c(c3c(=O)n2Cc2ccccc2)CCCC4)cc1 [No. 12]"
  inhibition at 1 µM, %: 3.1
- Compound: "O=C1CCCc2c1sc1nc(-c3ccccc3)n(Cc3ccccc3)c(=O)c21 [No. 57]"
  inhibition at 1 µM, %: 19.7
- Compound: "COc1cc(-c2nc3sc4c(c3c(=O)n2-c2ccccc2)CCCC4=O)cc(OC)c1OC [No. 11]"
  inhibition at 1 µM, %: -5.6

a: COc1cc(-c2nc3sc4c(c3c(=O)n2Cc2cccnc2)CCCC4)cc(OC)c1OC [No. 144]
b: CCCCn1c(-c2cc(OC)c(OC)c(OC)c2Br)nc2sc3c(c2c1=O)CC(C)C(Br)C3=O (centres unmarked) [No. 693]
# returns the entry with the larger inhibition at 1 µM; inputs a and b Field: selected label. Fill in the label of the entry you choose. a
(a: 12.7%, b: 5.2%)

###

Biological target: 17β-hydroxysteroid dehydrogenase type 1 (17β-HSD type 1) (Homo sapiens, UniProt P14061)
Construct: expressed in transfected cells; host or cells: MCF-7
Sequence (P14061 whole entry): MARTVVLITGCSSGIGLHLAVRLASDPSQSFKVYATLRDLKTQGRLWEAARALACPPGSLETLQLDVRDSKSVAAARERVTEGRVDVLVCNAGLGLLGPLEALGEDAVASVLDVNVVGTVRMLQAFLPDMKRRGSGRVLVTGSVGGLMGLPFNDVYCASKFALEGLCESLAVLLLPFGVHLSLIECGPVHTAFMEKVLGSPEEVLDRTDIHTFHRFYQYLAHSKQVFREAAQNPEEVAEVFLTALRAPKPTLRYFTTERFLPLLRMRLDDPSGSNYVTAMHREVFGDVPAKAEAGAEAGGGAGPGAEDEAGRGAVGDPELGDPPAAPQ
Assay: Inhibition of 17β-HSD type 1 in MCF-7 cells stably expressing the isoenzyme (tritium labeled estrone conversion, HPLC)
Type: cell-based
Conditions: MCF7; 10 μM test compound; MCF-7 cells expressing 17β-HSD type 1; 2 nM tritium labeled estrone; read-out: % Inhibition HSD1 10 μM
Source text: Biological Testing Materials and Methods 1. Inhibition of the 17β-hydroxysteroid dehydrocienase type 1, type 2 and type 3 enzyme The compounds were screened in respect of 17β-HSD enzyme activity in vitro on established MCF-7 cell lines, each stably expressing one of the respective 17β-HSD isoenzymes. The interconversion of substrate by each isoenzyme and the 17β-HSD inhibiting activity of chemical compounds in these cell lines were detected by HPLC system. […]
Value Kind: inhibition at 10 µM (%)

// below: answered molecules
- Molecule: "COc1cc(-c2nc3sc4c(c3c(=O)n2Cc2ccccc2)CC(C)C(Br)C4=O)c(Br)c(OC)c1OC (centres unmarked)"
  inhibition at 10 µM (%): 5.7
- Molecule: "COc1ccc(-c2nc3sc4c(c3c(=O)n2Cc2ccccc2)CCC(Br)C4=O)cc1 (centres unmarked)"
  inhibition at 10 µM (%): 50.9
- Molecule: "COc1cc(-c2nc3sc4c(Oc5ccccc5)c(C=O)ccc4c3c(=O)n2Cc2ccccc2)cc(OC)c1OC"
  inhibition at 10 µM (%): 26.1
- Molecule: "O=C(OCCn1c(-c2cccs2)nc2sc3c(c2c1=O)CCCC3)c1cccs1"
  inhibition at 10 µM (%): 10.5
- Molecule: "CCCCn1c(-c2ccccc2OC)nc2sc3c(O)cccc3c2c1=O"
  inhibition at 10 µM (%): 60.9
- Molecule: "COc1cc(-c2nc3sc4c(c3c(=O)n2Cc2ccccc2)CCCC4=O)cc(OC)c1OC"
  inhibition at 10 µM (%): 58.7
- Molecule: "COc1cc(-c2nc3sc4c(O)cccc4c3c(=O)n2CC2CCCO2)c(Br)c(OC)c1OC (centres unmarked)"
  inhibition at 10 µM (%): 58.4
- Molecule: "O=c1c2c3c(sc2nc(-c2cccs2)n1Cc1ccccc1)CCCC3"
  inhibition at 10 µM (%): 26.2

1: CCCCn1c(-c2cc(OC)c(OC)c(OC)c2)nc2sc3c(c2c1=O)CC(C)CC3 (centres unmarked)
2: CCCc1nc2sc3c(c2c(=O)n1Cc1ccco1)CCCC3=O
3: COc1cc(-c2nc3sc4c(c3c(=O)n2Cc2cccnc2)CCCC4)cc(OC)c1OC
4: COc1cc(-c2nc3sc4c(c3c(=O)n2CC(C)C)C(Br)CCC4=O)cc(OC)c1OC (centres unmarked)
5: CC(=O)Oc1c(Br)ccc2c1sc1nc(-c3ccccc3)n(Cc3ccccc3)c(=O)c12
Parameters: sort_field (inhibition at 10 µM), sort_dir (desc). The labels, placed in the requested order, form the answer. 4, 2, 3, 1, 5
(4: 96.6%, 2: 57.5%, 3: 33.7%, 1: 22.6%, 5: 11.7%)

The measured values listed here are drawn from patent US7524853B2.
